- test parameters: 283.15 K; 60000 kPa; Liquid; Vibrating tube method
± gives the expanded uncertainty stated by the source.
attribute measured: mass density

Example entries begin here.
   entry_smiles  attribute_measured        recorded_value
0      Cc1cccs1        mass density   1069.53 ± 0.6 kg/m3
1       c1ccsc1        mass density  1116.47 ± 0.59 kg/m3

Quick one: mass density of `Cc1ccsc1` ?
1069.67 ± 0.56 kg/m3

Next entry: `Cc1ccc(C)s1`
1033.6 ± 0.51 kg/m3

###

Each entry below carries its reported mass density.
- test parameters: 303.15 K; 55000 kPa; Liquid; Vibrating tube method
Form entry: value (kg/m3) — number only.

Example entries begin here.
In [3]: df
Out[3]:
   entry_smiles  attribute_measured   unit  recorded_value
0      Cc1ccsc1        mass density  kg/m3         1049.41
1   Cc1ccc(C)s1        mass density  kg/m3         1013.93
2      Cc1cccs1        mass density  kg/m3         1048.89

Consider the additional compound presented here.
Quick one: mass density of `c1ccsc1` ?
1093.96

###

- test parameters: 298.15 K; 40000 kPa; Liquid; Vibrating tube method
attribute measured: mass density (kg/m3)
Form entry: value (kg/m3) — number only.

In [3]: df
Out[3]:
   entry_smiles  attribute_measured   unit  recorded_value
0      Cc1cccs1        mass density  kg/m3         1044.09
1      Cc1ccsc1        mass density  kg/m3         1044.71
2       c1ccsc1        mass density  kg/m3         1089.21

Quick one: mass density of `Cc1ccc(C)s1` ?
1009.04

###

Each entry below carries its reported mass density.
- test parameters: 303.15 K; 60000 kPa; Liquid; Vibrating tube method
Form entry: value (kg/m3) — number only.

Example entries begin here.
>>> print(df.to_string())
   entry_smiles  recorded_value
0      Cc1cccs1         1051.84
1   Cc1ccc(C)s1         1016.85
2      Cc1ccsc1         1052.33

Quick one: mass density of `c1ccsc1` ?
1097.06

###

- test parameters: 333.15 K; 2000 kPa; Liquid; Vibrating tube method
Each entry below carries its reported mass density.
Form entry: value (kg/m3) — number only.

Example entries begin here.
                       compound  attribute_measured  recorded_value
0  Cc1cccs1 [2-methylthiophene]        mass density          978.46
1  Cc1ccsc1 [3-methylthiophene]        mass density          980.39
2           c1ccsc1 [thiophene]        mass density         1018.35

Consider the additional compound presented here.
Quick one: mass density of Cc1ccc(C)s1 [2,5-dimethylthiophene] ?
946.2

###

Each entry below carries its reported mass density.
- test parameters: 293.15 K; 50000 kPa; Liquid; Vibrating tube method
± gives the expanded uncertainty stated by the source.

   entry_smiles        recorded_value
0      Cc1ccsc1  1055.28 ± 0.54 kg/m3
1   Cc1ccc(C)s1  1019.47 ± 0.51 kg/m3
2       c1ccsc1   1100.7 ± 0.56 kg/m3

Quick one: mass density of `Cc1cccs1` ?
1054.87 ± 0.57 kg/m3

###

Each entry below carries its reported mass density.
- test parameters: 313.15 K; 15000 kPa; Liquid; Vibrating tube method
Form entry: value (kg/m3) — number only.

   entry_smiles  attribute_measured  recorded_value
0   Cc1ccc(C)s1        mass density          977.58

Quick one: mass density of `Cc1cccs1` ?
1011.45

Next entry: `c1ccsc1`
1054.25

Next entry: `Cc1ccsc1`
1012.71

###

- test parameters: 338.15 K; 60000 kPa; Liquid; Vibrating tube method
attribute measured: mass density (kg/m3)
Form entry: value (kg/m3) — number only.

Example entries begin here.
>>> df
                              molecule  recorded_value
0  Cc1ccc(C)s1 [2,5-dimethylthiophene]           988.2
1         Cc1cccs1 [2-methylthiophene]         1021.38
2                  c1ccsc1 [thiophene]         1063.48

Quick one: mass density of Cc1ccsc1 [3-methylthiophene] ?
1022.44

###

Each entry below carries its reported mass density.
- test parameters: 338.15 K; 55000 kPa; Liquid; Vibrating tube method
Numbers after ± are expanded uncertainties.
Enter the number, and then the unit.

Example entries begin here.
>>> print(df.to_string())
   entry_smiles  attribute_measured        recorded_value
0      Cc1ccsc1        mass density  1019.08 ± 0.51 kg/m3
1   Cc1ccc(C)s1        mass density    984.88 ± 0.5 kg/m3
2       c1ccsc1        mass density  1059.87 ± 0.53 kg/m3

Consider the additional molecule presented here.
Quick one: mass density of `Cc1cccs1` ?
1017.97 ± 0.53 kg/m3

###

- test parameters: 303.15 K; 30000 kPa; Liquid; Vibrating tube method
attribute measured: mass density (kg/m3)
Form entry: value (kg/m3) — number only.

In [3]: df
Out[3]:
                              compound  recorded_value
0  Cc1ccc(C)s1 [2,5-dimethylthiophene]          998.02
1                  c1ccsc1 [thiophene]         1077.03
2         Cc1ccsc1 [3-methylthiophene]          1033.5

Consider the additional compound presented here.
Quick one: mass density of Cc1cccs1 [2-methylthiophene] ?
1032.66

###

- test parameters: 313.15 K; 60000 kPa; Liquid; Vibrating tube method
attribute measured: mass density (kg/m3)
Form entry: value (kg/m3) — number only.

Example entries begin here.
>>> print(df.to_string())
   entry_smiles  recorded_value
0       c1ccsc1         1087.42
1      Cc1ccsc1         1043.73
2   Cc1ccc(C)s1         1008.58

Consider the additional molecule presented here.
Quick one: mass density of `Cc1cccs1` ?
1043.07

###

Each entry below carries its reported mass density.
- test parameters: 298.15 K; 7000 kPa; Liquid; Vibrating tube method
Form entry: value (kg/m3) — number only.

   entry_smiles  recorded_value
0      Cc1cccs1         1020.48
1       c1ccsc1         1064.57
2   Cc1ccc(C)s1           985.8

Consider the additional compound presented here.
Quick one: mass density of `Cc1ccsc1` ?
1021.56

###

- test parameters: 308.15 K; 2000 kPa; Liquid; Vibrating tube method
attribute measured: mass density (kg/m3)
Form entry: value (kg/m3) — number only.

Quick one: mass density of `c1ccsc1` ?
1048.48

Next entry: `Cc1cccs1`
1005.62

Next entry: `Cc1ccc(C)s1`
971.66

Next entry: `Cc1ccsc1`
1007.04

###

Each entry below carries its reported mass density.
- test parameters: 328.15 K; 30000 kPa; Liquid; Vibrating tube method
Form entry: value (kg/m3) — number only.

Example entries begin here.
In [3]: df
Out[3]:
                       molecule  attribute_measured  recorded_value
0           c1ccsc1 [thiophene]        mass density         1050.54
1  Cc1ccsc1 [3-methylthiophene]        mass density         1009.94
2  Cc1cccs1 [2-methylthiophene]        mass density         1008.65

Consider the additional molecule presented here.
Quick one: mass density of Cc1ccc(C)s1 [2,5-dimethylthiophene] ?
975.49

###

- test parameters: 338.15 K; 20000 kPa; Liquid; Vibrating tube method
Each entry below carries its reported mass density.
Form entry: value (kg/m3) — number only.

Example entries begin here.
In [3]: df
Out[3]:
   entry_smiles  attribute_measured   unit  recorded_value
0      Cc1cccs1        mass density  kg/m3          990.45
1       c1ccsc1        mass density  kg/m3         1030.78

Quick one: mass density of `Cc1ccsc1` ?
992.12

Next entry: `Cc1ccc(C)s1`
958.14

###

- test parameters: 318.15 K; 55000 kPa; Liquid; Vibrating tube method
attribute measured: mass density (kg/m3)
Form entry: value (kg/m3) — number only.

Example entries begin here.
In [3]: df
Out[3]:
   entry_smiles  attribute_measured  recorded_value
0      Cc1ccsc1        mass density         1036.33
1   Cc1ccc(C)s1        mass density         1001.39
2       c1ccsc1        mass density         1079.33

Consider the additional compound presented here.
Quick one: mass density of `Cc1cccs1` ?
1035.54
